# co-sedimentation pellet (% of WT) annotations
Biological target: filamentous actin (F-actin) from rabbit skeletal muscle (rabbit, UniProt P68135 1-377)
Assay: co-sedimentation

[
  {
    "binder": "talin 2300–2541 K2443D (domain or fragment, mouse, UniProt P26039 2300-2541, looked up) DPTVIAENELLGAAAAIEAAAKKLEQLKPRAKPKEADESLNFEEQILEAAKSIAAATSALVKAASAAQRELVAQGKVGAIPANALDDGQWSQGLISAARMVAAATNNLCEAANAAVQGHASQEKLISSAKQVAASTAQLLVACDVKADQDSEAMKRLQAAGNAVKRASDNLVKAAQKAAAFEDQENETVVVKEKMVGGIAQIIAAQEEMLRKERELEEARKKLAQIRQQQYKFLPSELRDEH",
    "co-sedimentation pellet (% of WT)": "43 % of WT"
  },
  {
    "binder": "talin 2300–2541 D2385K/D2386N (domain or fragment, mouse, UniProt P26039 2300-2541, looked up) DPTVIAENELLGAAAAIEAAAKKLEQLKPRAKPKEADESLNFEEQILEAAKSIAAATSALVKAASAAQRELVAQGKVGAIPANALKNGQWSQGLISAARMVAAATNNLCEAANAAVQGHASQEKLISSAKQVAASTAQLLVACKVKADQDSEAMKRLQAAGNAVKRASDNLVKAAQKAAAFEDQENETVVVKEKMVGGIAQIIAAQEEMLRKERELEEARKKLAQIRQQQYKFLPSELRDEH",
    "co-sedimentation pellet (% of WT)": "113 % of WT"
  },
  {
    "binder": "talin 2300–2541 Q2388D (domain or fragment, mouse, UniProt P26039 2300-2541, looked up) DPTVIAENELLGAAAAIEAAAKKLEQLKPRAKPKEADESLNFEEQILEAAKSIAAATSALVKAASAAQRELVAQGKVGAIPANALDDGDWSQGLISAARMVAAATNNLCEAANAAVQGHASQEKLISSAKQVAASTAQLLVACKVKADQDSEAMKRLQAAGNAVKRASDNLVKAAQKAAAFEDQENETVVVKEKMVGGIAQIIAAQEEMLRKERELEEARKKLAQIRQQQYKFLPSELRDEH",
    "co-sedimentation pellet (% of WT)": "59 % of WT"
  },
  {
    "binder": "talin 2300–2541 L2309A (domain or fragment, mouse, UniProt P26039 2300-2541, looked up) DPTVIAENEALGAAAAIEAAAKKLEQLKPRAKPKEADESLNFEEQILEAAKSIAAATSALVKAASAAQRELVAQGKVGAIPANALDDGQWSQGLISAARMVAAATNNLCEAANAAVQGHASQEKLISSAKQVAASTAQLLVACKVKADQDSEAMKRLQAAGNAVKRASDNLVKAAQKAAAFEDQENETVVVKEKMVGGIAQIIAAQEEMLRKERELEEARKKLAQIRQQQYKFLPSELRDEH",
    "co-sedimentation pellet (% of WT)": "113 % of WT"
  },
  {
    "binder": "talin 2300–2541 R2510A (domain or fragment, mouse, UniProt P26039 2300-2541, looked up) DPTVIAENELLGAAAAIEAAAKKLEQLKPRAKPKEADESLNFEEQILEAAKSIAAATSALVKAASAAQRELVAQGKVGAIPANALDDGQWSQGLISAARMVAAATNNLCEAANAAVQGHASQEKLISSAKQVAASTAQLLVACKVKADQDSEAMKRLQAAGNAVKRASDNLVKAAQKAAAFEDQENETVVVKEKMVGGIAQIIAAQEEMLAKERELEEARKKLAQIRQQQYKFLPSELRDEH",
    "co-sedimentation pellet (% of WT)": "77 % of WT"
  }
]

Origin of the recorded values: paper PMC2168396
